Cited source: patent US4737497A

test: Animal test on acute toxicity; settings: mouse, in vivo, ip; intraperitoneal, male ddY mice, observed 14 days, Litchfield-Wilcoxon method
PROPERTY_MEASURED: LD50 at 336 h (mg/kg)
Give the value in mg/kg but do not write mg/kg after it.

>>> measured_result("CC(CN1CC(=O)N(CN2CCN(c3ccccc3)CC2)C(=O)C1)N1CC(=O)N(CN2CCN(c3ccccc3)CC2)C(=O)C1 (racemic)")
100
>>> measured_result("O=C1CN(CCN2CC(=O)N(CN3CCOCC3)C(=O)C2)CC(=O)N1CN1CCOCC1 [reference compound]")
280
>>> measured_result("CC(CN1CC(=O)N(CN2CCSCC2)C(=O)C1)N1CC(=O)N(CN2CCSCC2)C(=O)C1 (racemic)")
330

Here is the next item to consider.
State the recorded LD50 at 336 h for this entry: CC(CN1CC(=O)N(CN2CCOCC2)C(=O)C1)N1CC(=O)N(CN2CCOCC2)C(=O)C1 (racemic)
255
